target: UniProt P23977; assay: [3H]dopamine uptake inhibition via DAT in rat brain synaptosomes; assay type: cell-based
Sequence (P23977 whole entry): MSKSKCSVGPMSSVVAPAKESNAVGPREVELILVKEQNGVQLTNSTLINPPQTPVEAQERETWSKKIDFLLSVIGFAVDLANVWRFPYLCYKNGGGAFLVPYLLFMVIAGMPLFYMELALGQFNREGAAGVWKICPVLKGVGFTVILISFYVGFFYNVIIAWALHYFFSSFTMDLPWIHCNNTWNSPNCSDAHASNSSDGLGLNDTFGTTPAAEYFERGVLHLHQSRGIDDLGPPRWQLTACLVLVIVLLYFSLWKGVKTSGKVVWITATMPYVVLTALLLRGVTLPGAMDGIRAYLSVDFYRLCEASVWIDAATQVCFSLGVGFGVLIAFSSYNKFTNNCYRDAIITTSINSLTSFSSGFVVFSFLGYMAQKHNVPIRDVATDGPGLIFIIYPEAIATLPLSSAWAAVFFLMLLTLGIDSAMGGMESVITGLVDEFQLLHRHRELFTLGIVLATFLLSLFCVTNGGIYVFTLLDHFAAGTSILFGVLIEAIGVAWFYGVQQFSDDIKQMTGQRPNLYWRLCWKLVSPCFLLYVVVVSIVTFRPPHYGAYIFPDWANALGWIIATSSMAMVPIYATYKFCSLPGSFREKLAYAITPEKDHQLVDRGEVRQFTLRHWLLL
assay-metric: IC50
Enter the number, and then the unit.

The molecule listed as COC(=O)C(c1ccccc1)C1CCCCN1 (stereo not shown) has a reported IC50 of 131 nM

###

target: serotonin transporters (SERT) (Rattus norvegicus); test: [3H]serotonin uptake inhibition via SERT in rat brain synaptosomes; format: cell-based; settings: read-out: [3H]5-HT uptake via SERT IC50; rat brain synaptosomes, 5 nM [3H]serotonin, mean ± SD, n = 3
Sequence (P31652 whole entry): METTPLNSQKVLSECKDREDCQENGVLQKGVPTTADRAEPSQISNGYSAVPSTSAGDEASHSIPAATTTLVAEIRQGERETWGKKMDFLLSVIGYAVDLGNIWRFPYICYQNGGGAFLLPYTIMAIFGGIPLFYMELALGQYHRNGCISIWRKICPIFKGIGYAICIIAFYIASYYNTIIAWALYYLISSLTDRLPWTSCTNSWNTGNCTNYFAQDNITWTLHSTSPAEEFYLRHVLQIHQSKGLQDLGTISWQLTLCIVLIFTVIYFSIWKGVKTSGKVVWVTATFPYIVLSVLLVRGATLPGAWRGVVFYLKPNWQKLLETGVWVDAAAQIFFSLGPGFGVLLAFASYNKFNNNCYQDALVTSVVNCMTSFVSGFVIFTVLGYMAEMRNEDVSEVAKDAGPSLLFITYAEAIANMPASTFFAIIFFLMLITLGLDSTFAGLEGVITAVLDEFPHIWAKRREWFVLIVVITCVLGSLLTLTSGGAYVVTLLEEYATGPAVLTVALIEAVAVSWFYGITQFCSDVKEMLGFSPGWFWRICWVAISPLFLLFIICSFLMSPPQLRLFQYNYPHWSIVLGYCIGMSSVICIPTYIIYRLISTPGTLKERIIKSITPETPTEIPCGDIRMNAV
assay-metric: IC50 (µM)
Note: unit µM is implicit; provide only the numeric part.

Memo: COC(=O)[C@H](c1ccc(F)cc1)[C@H]1CCCCN1 (racemic) [(±)-threo-4F-MPH, 4-Fluoromethylphenidate] , reported IC50: 8.8

The origin of these recorded values is paper PMC5378611.
